- System name: T1, FAT domain of human FAK (892–1052) (human, UniProt Q05397 892-1052)
- T1 chain: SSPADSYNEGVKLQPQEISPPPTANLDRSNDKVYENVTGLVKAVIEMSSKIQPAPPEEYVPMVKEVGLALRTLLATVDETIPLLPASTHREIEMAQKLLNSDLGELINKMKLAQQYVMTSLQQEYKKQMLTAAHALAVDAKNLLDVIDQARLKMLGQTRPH
- Procedure details: ITC
Where no end group is shown, it is not given here.
Each item that follows carries a reported pKd.
Conceptually, pKd converts a concentration in mol/L into minus its log10.

Some binders with known pKd results, for comparison:
SQEEIDKLLMDLESFSQ (also: N-terminal FITC-Ahx only in labelled form) [PPP2R3A LD motif peptide]    4.71
ATDELDALLASLTENLID (also: N-terminal FITC-Ahx only in labelled form, predicted LD motif of human EPB41L5 (Band 4.1-like protein 5); also called E41L5; YMO1; source: synthetic peptide, bought: GenScript) [EPB41L5 (Band 4.1-like protein 5) LD motif peptide]    5.22

Form field pKd, entry SASSATRELDELMASLSD (also: N-terminal FITC-Ahx only in labelled form) [Paxillin LD4 peptide] : 4.71

Every entry's value here was drawn from paper PMC7703752.
